As shown below, each of these molecules has a reported Ki value.
biological target: Sigma 2 receptor; assay: Binding affinity towards Sigma 2 receptor using [3H]ifenprodil in rat brain

Below: 2 molecules and their reported Ki.
substanceSmiles	system	Ki
Oc1nc2ccccc2c2ncc(CN3CCN(c4ccccc4Cl)CC3)n12	Sigma 2 receptor	3.05 µM
COc1ccccc1N1CCN(CCn2c(=O)[nH]c3ccccc3c2=O)CC1	Sigma 2 receptor	2.5 µM

Now take the following molecule into account.
Query COc1ccccc1N1CCN(Cc2cn3c(O)nc4ccccc4c3n2)CC1 yields Ki of 4.88 µM

---

Molecular target: Alpha-1B adrenergic receptor (Rattus norvegicus, UniProt P15823)
Sequence (P15823 whole entry): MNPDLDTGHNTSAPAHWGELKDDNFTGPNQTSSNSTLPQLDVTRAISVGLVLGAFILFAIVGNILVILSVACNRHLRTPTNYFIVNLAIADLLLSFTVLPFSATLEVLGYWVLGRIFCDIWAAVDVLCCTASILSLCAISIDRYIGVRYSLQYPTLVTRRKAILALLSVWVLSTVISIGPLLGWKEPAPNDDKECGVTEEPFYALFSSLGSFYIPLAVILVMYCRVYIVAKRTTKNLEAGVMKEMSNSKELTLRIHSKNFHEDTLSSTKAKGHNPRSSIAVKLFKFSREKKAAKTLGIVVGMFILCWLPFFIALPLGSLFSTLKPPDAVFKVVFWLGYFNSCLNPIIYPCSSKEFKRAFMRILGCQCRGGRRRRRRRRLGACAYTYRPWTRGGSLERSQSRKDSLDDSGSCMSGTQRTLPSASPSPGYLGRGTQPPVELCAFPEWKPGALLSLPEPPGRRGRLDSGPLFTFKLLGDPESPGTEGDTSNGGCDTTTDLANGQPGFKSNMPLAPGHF
Binarize Ki at 1 nM; below is Fulfilled, at or above is Not fulfilled.

compound	classLabel
COc1ccccc1N1CCN(C[C@@H]2CN=C3c4ccccc4NC(=O)N32)CC1	Not fulfilled

Determine whether this compound shows Ki lower than 1 nM (ties excluded): COc1ccccc1N1CCN(CC2CN=C3c4ccccc4NC(=O)N32)CC1 (stereo not drawn)
Fulfilled

Determine whether this compound shows Ki lower than 1 nM (ties excluded): COc1ccccc1N1CCN(C[C@H]2CN=C3c4ccccc4NC(=O)N32)CC1
Fulfilled

Determine whether this compound shows Ki lower than 1 nM (ties excluded): COc1ccccc1N1CCN(CC2CN=C3c4ccccc4N=C(SC)N32)CC1 (stereo not drawn)
Not fulfilled

Determine whether this compound shows Ki lower than 1 nM (ties excluded): COc1ccccc1N1CCN(CC2CN3C(=O)Nc4ccccc4C3=N2)CC1 (stereo not drawn)
Not fulfilled
